Test system: Cavia porcellus
protocol summary: Relative potency against bronchoconstrictions, induced by intravenous administration of histamine at doses […] in guinea pig.
Format: functional
# Relative potency per record follows
Reply with the value as a number alone.

Before answering, review these 5 worked examples.
| compound | readout number |
| --- | --- |
| CCCCC[C@H](O)/C=C/[C@H]1[C@H](SCCO)CC(=O)[C@@H]1C/C=C\CCCC(=O)O | 55 |
| CCCCC[C@H](O)/C=C/[C@H]1C(SCC(O)CO)CC(=O)[C@@H]1C/C=C\CCCC(=O)OC (stereo partly drawn) | 11 |
| CCCCC[C@H](O)/C=C/[C@H]1[C@H](O)CC(=O)[C@@H]1C/C=C\CCCC(=O)O | 570 |
| CCCCC[C@@H](O)/C=C/[C@H]1[C@@H](SCCO)CC(=O)[C@@H]1C/C=C\CCCC(=O)OC (racemic) | 6 |
| CCCCC[C@H](O)/C=C/[C@H]1[C@H](SCCO)CC(=O)[C@@H]1C/C=C\CCCC(=O)OC | 100 |

Look up Relative potency for this compound: CCCCC[C@H](O)/C=C/[C@H]1C(SCCN(CC)CC)CC(=O)[C@@H]1C/C=C\CCCC(=O)OC (stereo partly drawn)
22

Next compound up: CCCCC[C@H](O)/C=C/[C@H]1C(SCCO)CC(=O)[C@@H]1CCCCCCC(=O)O (stereo partly drawn)
104

Next compound up: CCCCC[C@H](O)/C=C/[C@H]1C(SCCN)CC(=O)[C@@H]1C/C=C\CCCC(=O)OC (stereo partly drawn)
0.3
